System: ATP;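 note: ATP exposure 15 min at 22 °C before imaging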
assay_method_text: switch fluorescence ratio, 500 uM ATP over buffer (Cy3 cluster intensity, sum of 5 cycles each) (fold (ratio)); higher = stronger signal-on switching upon ATP binding; sequences stand for … in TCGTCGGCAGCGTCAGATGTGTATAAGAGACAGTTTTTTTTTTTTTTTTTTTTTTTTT…TC
assay_setup: aptamer strand: ATP DNA aptamer (quencher-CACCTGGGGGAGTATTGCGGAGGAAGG + anchor), 100 nM annealed; ATP concentration: 500 uM
The entries below are paired with their reported switch fluorescence ratio.
Lab note: write the figure by itself, no unit.

A selection of reference data follows.
- chain: "GATTTCAAAC"
  recorded_endpoint: "switch fluorescence ratio"
  endpoint_value: 0.982
- chain: "TACGGGATGG"
  recorded_endpoint: "switch fluorescence ratio"
  endpoint_value: 0.989
- chain: "TGCGTTTATT"
  recorded_endpoint: "switch fluorescence ratio"
  endpoint_value: 0.994
- chain: "TAGATGGGAT"
  recorded_endpoint: "switch fluorescence ratio"
  endpoint_value: 0.976
- chain: "GTTTTGCGTT"
  recorded_endpoint: "switch fluorescence ratio"
  endpoint_value: 0.988

## Task Identify measured switch fluorescence ratio corresponding to GGGTAATGGG
## Result 0.982

## Task Identify measured switch fluorescence ratio corresponding to GGGCTTTCTC
## Result 1.09

## Task Identify measured switch fluorescence ratio corresponding to TTAGGTCTTC
## Result 1.02

## Task Identify measured switch fluorescence ratio corresponding to TTTTTTGGGA
## Result 1.01

## Task Identify measured switch fluorescence ratio corresponding to TTTTGTGGGC
## Result 1.01

## Task Identify measured switch fluorescence ratio corresponding to TGCCCGGACA
## Result 1.01

###

Test system: ATP;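 note: ATP exposure 15 min at 22 °C before imaging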
assay_method_text: switch fluorescence ratio, 500 uM ATP over buffer (Cy3 cluster intensity, sum of 5 cycles each) (fold (ratio)); higher = stronger signal-on switching upon ATP binding; sequences stand for … in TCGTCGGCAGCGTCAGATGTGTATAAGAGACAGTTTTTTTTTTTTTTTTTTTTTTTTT…TC
assay_setup: aptamer strand: ATP DNA aptamer (quencher-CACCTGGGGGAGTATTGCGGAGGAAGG + anchor), 100 nM annealed; ATP concentration: 500 uM
recorded_endpoint: switch fluorescence ratio
Lab note: write the figure by itself, no unit.

A selection of reference data follows.
- chain: "GACAAAACTA"
  switch fluorescence ratio: 1.16
- chain: "AAAGGTAAGG"
  switch fluorescence ratio: 0.965
- chain: "AGGGAGTTGC"
  switch fluorescence ratio: 1.03
- chain: "GGGGATAAGG"
  switch fluorescence ratio: 0.984
- chain: "TCGGTTCAGC"
  switch fluorescence ratio: 1.01
- chain: "CCACGATTAA"
  switch fluorescence ratio: 1
- chain: "CACCTAGTTT"
  switch fluorescence ratio: 1.01
- chain: "CCGGTCTAGC"
  switch fluorescence ratio: 1.14

## Task Identify measured switch fluorescence ratio corresponding to TTTAAAGACT
## Result 1.01

## Task Identify measured switch fluorescence ratio corresponding to GGGTAAAGAT
## Result 1.02

## Task Identify measured switch fluorescence ratio corresponding to AAATGCTATG
## Result 1.01

## Task Identify measured switch fluorescence ratio corresponding to TGATCGTCGG
## Result 1.02

## Task Identify measured switch fluorescence ratio corresponding to TTTTTCGG
## Result 0.996

###

Tested on: ATP;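 note: ATP exposure 15 min at 22 °C before imaging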
assay_method_text: switch fluorescence ratio, 500 uM ATP over buffer (Cy3 cluster intensity, sum of 5 cycles each) (fold (ratio)); higher = stronger signal-on switching upon ATP binding; sequences stand for … in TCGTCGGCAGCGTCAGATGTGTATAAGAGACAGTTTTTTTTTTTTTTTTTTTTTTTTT…TC
assay_setup: aptamer strand: ATP DNA aptamer (quencher-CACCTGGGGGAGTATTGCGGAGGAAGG + anchor), 100 nM annealed; ATP concentration: 500 uM
recorded_endpoint: switch fluorescence ratio
Lab note: write the figure by itself, no unit.

A selection of reference data follows.
- chain: "AGGTTGAAGG"
  system_under_test: "ATP"
  switch fluorescence ratio: 0.997
- chain: "CTCGGCCACT"
  system_under_test: "ATP"
  switch fluorescence ratio: 2.26
- chain: "CAGTATGGGG"
  system_under_test: "ATP"
  switch fluorescence ratio: 0.966
- chain: "AGATGCGGTA"
  system_under_test: "ATP"
  switch fluorescence ratio: 1.01

## Task Identify measured switch fluorescence ratio corresponding to GTATAAGTTT
## Result 0.998

## Task Identify measured switch fluorescence ratio corresponding to AAGGGCGGGC
## Result 1.07

## Task Identify measured switch fluorescence ratio corresponding to CCTTGTTTAA
## Result 1.01

## Task Identify measured switch fluorescence ratio corresponding to GTTTCCAGTT
## Result 1.03

###

Tested on: ATP;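 note: ATP exposure 15 min at 22 °C before imaging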
assay_method_text: switch fluorescence ratio, 500 uM ATP over buffer (Cy3 cluster intensity, sum of 5 cycles each) (fold (ratio)); higher = stronger signal-on switching upon ATP binding; sequences stand for … in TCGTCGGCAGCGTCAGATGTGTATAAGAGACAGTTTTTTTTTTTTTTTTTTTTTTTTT…TC
assay_setup: aptamer strand: ATP DNA aptamer (quencher-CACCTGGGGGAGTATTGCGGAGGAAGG + anchor), 100 nM annealed; ATP concentration: 500 uM
Mark yes for reported switch fluorescence ratio of 1 or greater; mark no for anything smaller.

Solved entries:
- chain: "GTGACTGTGT"
  qualitative_label: "no"
- chain: "TCTCGGCATT"
  qualitative_label: "yes"
- chain: "CTGTCCATCC"
  qualitative_label: "yes"
- chain: "GCGTGGGCGA"
  qualitative_label: "yes"
- chain: "TTTCGGATGG"
  qualitative_label: "yes"

## Task // inclusive: switch fluorescence ratio at least 1? input: CAGGATTAAA
## Result no

## Task // inclusive: switch fluorescence ratio at least 1? input: ATCGTTGCGG
## Result yes

## Task // inclusive: switch fluorescence ratio at least 1? input: CGGTGGGGAC
## Result yes

###

The entries below are paired with their reported switch fluorescence ratio.
Test system: ATP;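 note: ATP exposure 15 min at 22 °C before imaging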
assay_method_text: switch fluorescence ratio, 500 uM ATP over buffer (Cy3 cluster intensity, sum of 5 cycles each) (fold (ratio)); higher = stronger signal-on switching upon ATP binding; sequences stand for … in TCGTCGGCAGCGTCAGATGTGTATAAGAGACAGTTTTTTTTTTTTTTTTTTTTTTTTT…TC
assay_setup: aptamer strand: ATP DNA aptamer (quencher-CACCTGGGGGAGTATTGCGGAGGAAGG + anchor), 100 nM annealed; ATP concentration: 500 uM
Lab note: write the figure by itself, no unit.

A selection of reference data follows.
- chain: "GTTTTTAGCA"
  switch fluorescence ratio: 0.972
- chain: "GATCGTAATT"
  switch fluorescence ratio: 1.06
- chain: "CGTGAAGGCG"
  switch fluorescence ratio: 0.952
- chain: "TGGATAAGTG"
  switch fluorescence ratio: 0.998
- chain: "CACTTAGGCT"
  switch fluorescence ratio: 1.01

## Task Identify measured switch fluorescence ratio corresponding to TGATGGCCCG
## Result 1.03

## Task Identify measured switch fluorescence ratio corresponding to TGCTAGCATT
## Result 1.11

## Task Identify measured switch fluorescence ratio corresponding to ACTAGATACG
## Result 1.04

## Task Identify measured switch fluorescence ratio corresponding to ATGAAGGGAA
## Result 0.999

## Task Identify measured switch fluorescence ratio corresponding to AGGGGATCGC
## Result 0.996

###

The entries below are paired with their reported switch fluorescence ratio.
Tested on: ATP;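 note: ATP exposure 15 min at 22 °C before imaging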
assay_method_text: switch fluorescence ratio, 500 uM ATP over buffer (Cy3 cluster intensity, sum of 5 cycles each) (fold (ratio)); higher = stronger signal-on switching upon ATP binding; sequences stand for … in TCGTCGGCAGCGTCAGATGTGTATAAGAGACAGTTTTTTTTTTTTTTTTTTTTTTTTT…TC
assay_setup: aptamer strand: ATP DNA aptamer (quencher-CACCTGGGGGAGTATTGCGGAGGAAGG + anchor), 100 nM annealed; ATP concentration: 500 uM
Lab note: write the figure by itself, no unit.

A selection of reference data follows.
- chain: "AAATTTGTGT"
  switch fluorescence ratio: 0.999
- chain: "GGATCCACGG"
  switch fluorescence ratio: 1.01
- chain: "TTTTAACGGG"
  switch fluorescence ratio: 0.998
- chain: "ATTATTTCCC"
  switch fluorescence ratio: 1.05
- chain: "GTATTAAACC"
  switch fluorescence ratio: 1.06

## Task Identify measured switch fluorescence ratio corresponding to TTTGGTGTGC
## Result 1.01

## Task Identify measured switch fluorescence ratio corresponding to TGGGGTTTGA
## Result 0.997

## Task Identify measured switch fluorescence ratio corresponding to TTGGGGGTTC
## Result 1.01

## Task Identify measured switch fluorescence ratio corresponding to AAGGGATCGG
## Result 0.994

## Task Identify measured switch fluorescence ratio corresponding to AATAATTTCG
## Result 1.01
